# Measurement target: TrkA (Homo sapiens)
# Sequence (P04629 33-796): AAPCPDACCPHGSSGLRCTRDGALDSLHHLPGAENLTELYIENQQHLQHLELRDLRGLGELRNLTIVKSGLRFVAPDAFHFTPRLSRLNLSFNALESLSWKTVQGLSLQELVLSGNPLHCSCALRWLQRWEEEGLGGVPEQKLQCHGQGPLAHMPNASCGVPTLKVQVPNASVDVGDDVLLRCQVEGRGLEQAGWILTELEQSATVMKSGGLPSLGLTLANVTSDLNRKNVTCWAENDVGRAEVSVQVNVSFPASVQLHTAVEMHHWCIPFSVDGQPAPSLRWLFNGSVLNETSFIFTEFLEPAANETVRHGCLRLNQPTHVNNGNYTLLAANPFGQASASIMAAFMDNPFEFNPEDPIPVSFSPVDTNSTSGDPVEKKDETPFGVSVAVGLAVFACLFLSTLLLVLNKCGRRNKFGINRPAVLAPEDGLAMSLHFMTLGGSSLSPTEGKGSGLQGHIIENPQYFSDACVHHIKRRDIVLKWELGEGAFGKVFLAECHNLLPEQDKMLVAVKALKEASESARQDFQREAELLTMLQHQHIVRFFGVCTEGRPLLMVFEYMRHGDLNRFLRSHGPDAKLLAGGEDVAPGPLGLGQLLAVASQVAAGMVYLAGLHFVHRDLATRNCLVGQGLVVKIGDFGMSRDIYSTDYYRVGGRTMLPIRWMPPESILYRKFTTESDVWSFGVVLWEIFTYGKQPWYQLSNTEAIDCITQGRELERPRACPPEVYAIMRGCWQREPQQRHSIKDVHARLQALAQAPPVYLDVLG
pIC50: −log10 of the molar value.
# pIC50 per record follows

• CCOC(=O)c1c[nH]c2c(=O)[nH]c3ccc(-c4ccnc(Nc5nc6ccccc6[nH]5)n4)cc3c12 [Compound 267] = 4.00 to 5.00
• CCOC(=O)c1c[nH]c2c(=O)[nH]c3ccc(S(=O)(=O)Nc4cccc(OC)c4)cc3c12 [Compound 8] = 4.00 to 5.00
• CCNc1nccc(-c2ccc3[nH]c(=O)c4[nH]cc(C(=O)OCC)c4c3c2)n1 [Compound 264] = 4.00 to 5.00

pIC50 of COC(=O)c1c[nH]c2c(=O)[nH]c3ccc(S(=O)(=O)NC4CCCCC4)cc3c12 [Compound 111] , assay on TrkA (Homo sapiens), is 5.00 to 6.00

Values were extracted from patent US8426437B2.
